# measured.target: UniProtKB P04150
# Sequence (P04150 whole entry): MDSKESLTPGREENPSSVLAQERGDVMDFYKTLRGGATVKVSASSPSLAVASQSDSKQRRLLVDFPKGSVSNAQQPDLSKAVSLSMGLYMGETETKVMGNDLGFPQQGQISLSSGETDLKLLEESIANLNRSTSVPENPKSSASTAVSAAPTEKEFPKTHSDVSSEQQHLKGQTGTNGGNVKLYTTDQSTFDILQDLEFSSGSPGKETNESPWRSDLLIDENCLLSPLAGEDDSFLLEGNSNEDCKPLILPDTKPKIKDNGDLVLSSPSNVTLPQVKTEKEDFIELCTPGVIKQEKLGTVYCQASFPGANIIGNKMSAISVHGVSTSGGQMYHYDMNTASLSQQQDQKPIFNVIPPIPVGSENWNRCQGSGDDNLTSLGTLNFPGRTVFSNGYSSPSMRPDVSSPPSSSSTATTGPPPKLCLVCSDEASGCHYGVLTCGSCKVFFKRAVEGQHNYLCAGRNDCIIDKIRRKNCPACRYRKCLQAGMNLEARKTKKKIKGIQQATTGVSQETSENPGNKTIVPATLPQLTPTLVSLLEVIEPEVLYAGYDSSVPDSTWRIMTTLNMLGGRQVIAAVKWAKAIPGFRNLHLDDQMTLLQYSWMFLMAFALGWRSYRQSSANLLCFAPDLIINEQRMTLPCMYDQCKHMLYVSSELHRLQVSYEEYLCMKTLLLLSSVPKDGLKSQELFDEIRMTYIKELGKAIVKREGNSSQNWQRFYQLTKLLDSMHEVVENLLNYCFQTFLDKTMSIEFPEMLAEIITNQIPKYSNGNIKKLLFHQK
# assay.summary: Transactivation activity of glucocorticoid receptor in HFF assessed as induction of aromatase activity by measuring beta-estradiol activity after 18 to 24 hrs by ELISA
# applied.conditions: read-out: EC50
Labelling field: enter Fulfilled if recorded EC50 is less than 100 nM. Enter Not fulfilled if it equals or exceeds that cut-off.

### Prompt EC50 strictly < 100 nM for this compound? COc1ccc(F)cc1C(C)(C)CC(O)(Cc1cc2c(C#N)cccc2[nH]1)C(F)(F)F (racemic)
### Response Fulfilled

### Prompt Repeat for the following compound: COc1ccc(F)cc1C(C)(C)C[C@](O)(Cc1cc2ccccc2[nH]1)C(F)(F)F
### Response Not fulfilled

### Prompt Repeat for the following compound: COc1ccc(F)cc1C(C)(C)CC(O)(Cc1cc2cccc(C)c2[nH]1)C(F)(F)F (racemic)
### Response Not fulfilled

### Prompt Repeat for the following compound: COc1ccc(F)cc1C(C)(C)C[C@@](O)(Cc1cc2ccccc2[nH]1)C(F)(F)F
### Response Fulfilled

### Prompt Repeat for the following compound: COc1ccc(F)cc1C(C)(C)CC(O)(Cc1cc2cc(C)ccc2[nH]1)C(F)(F)F (racemic)
### Response Not fulfilled

### Prompt Repeat for the following compound: CC(C)(CC(O)(Cc1cc2ccc(C#N)cc2[nH]1)C(F)(F)F)c1cc(S(C)(=O)=O)cc2c1OCC2 (racemic)
### Response Not fulfilled

### Prompt Repeat for the following compound: COc1ccc(F)cc1C(C)(C)CC(O)(Cc1cc2ccc(F)cc2[nH]1)C(F)(F)F (racemic)
### Response Fulfilled

### Prompt Repeat for the following compound: COc1ccc(F)cc1C(C)(C)CC(O)(Cc1cc2cc(C(F)(F)F)ccc2[nH]1)C(F)(F)F (racemic)
### Response Not fulfilled
